Cited source for all entries: paper PMC6917776

# assay-procedure: CelltiterGlo viability cell assay
# Assay type: cell-based
# test-parameters: human, CAL851 breast cancer cells, CAL851, 6 day, 0.03 uM; read-out: viability Replicate 2
# Description: Supplementary Figure 13. […] Viability of (a) Multiple Myeloma lines and (b) Breast Cancer cell lines following 3 or 6 days treatment with […] manufacturer’s instructions as described in the Supplementary methods. Data are normalized to DMSO control. N=3 biological replicates, +/- SEM. Source data are provided as a Source Data […] CelltiterGlo viability cell assay […]
attribute-measured: viability at 6 day, 0.03 µM

Per the records, this compound ( COc1cc(OC)cc(-c2noc(N3CCN(C)C4(CCN(c5ccnc(C)c5)CC4)C3)n2)c1 ) has viability at 6 day, 0.03 µM equal to 114%

---

# assay-procedure: CelltiterGlo viability cell assay
# Format: cell-based
# test-parameters: human, HCC1806 breast cancer cells, HCC1806, 3 day, 1 uM; read-out: viability Replicate 2
attribute-measured: viability at 3 day, 1 µM (%)
Answer in %, number only, no unit symbol.

Per the records, this molecule ( COc1cc(OC)cc(-c2noc(N3CCN(C)C4(CCN(c5ccnc(C)c5)CC4)C3)n2)c1 ) has viability at 3 day, 1 µM equal to 111

---

# assay-procedure: CelltiterGlo viability cell assay
# Format: cell-based
# test-parameters: human, MDA-MB-436 breast cancer cells, MDA MB436, 6 day, 1 uM; read-out: viability Replicate 1
attribute-measured: viability at 6 day, 1 µM (%)
Answer in %, number only, no unit symbol.

Per the records, this compound ( COc1cc(OC)cc(-c2noc(N3CCN(C)C4(CCN(c5ccnc(C)c5)CC4)C3)n2)c1 ) has viability at 6 day, 1 µM equal to 109

---

# assay-procedure: CelltiterGlo viability cell assay
# Type: cell-based
# test-parameters: human, RPMI-8226 cells (multiple myeloma line), 8226, 3 day, 30 uM; read-out: viability Replicate 1
attribute-measured: viability at 3 day, 30 µM
Answer by giving the amount and then stating its unit.

Per the records, this compound ( COc1cc(OC)cc(-c2noc(N3CCN(C)C4(CCN(c5ccnc(C)c5)CC4)C3)n2)c1 ) has viability at 3 day, 30 µM equal to 74.2%

---

# assay-procedure: CelltiterGlo viability cell assay
# Assay type: cell-based
# test-parameters: human, MDA-MB-436 breast cancer cells, MDA MB436, 6 day, 0.3 uM; read-out: viability Average
attribute-measured: viability at 6 day, 0.3 µM (%)
Answer in %, number only, no unit symbol.

Per the records, this compound ( COc1cc(OC)cc(-c2noc(N3CCN(C)C4(CCN(c5ccnc(C)c5)CC4)C3)n2)c1 ) has viability at 6 day, 0.3 µM equal to 107

---

# assay-procedure: CelltiterGlo viability cell assay
# Format: cell-based
# test-parameters: human, HCC1806 breast cancer cells, HCC1806, 3 day, 9.5 uM; read-out: viability Replicate 2
attribute-measured: viability at 3 day, 9.5 µM (%)
Answer in %, number only, no unit symbol.

Per the records, this molecule ( COc1cc(OC)cc(-c2noc(N3CCN(C)C4(CCN(c5ccnc(C)c5)CC4)C3)n2)c1 ) has viability at 3 day, 9.5 µM equal to 51.7

---

# study-system: PRDM9 (Homo sapiens)
# Construct: PRDM9 (amino acids: 195–415)
# Sequence (Q9NQV7 195-415): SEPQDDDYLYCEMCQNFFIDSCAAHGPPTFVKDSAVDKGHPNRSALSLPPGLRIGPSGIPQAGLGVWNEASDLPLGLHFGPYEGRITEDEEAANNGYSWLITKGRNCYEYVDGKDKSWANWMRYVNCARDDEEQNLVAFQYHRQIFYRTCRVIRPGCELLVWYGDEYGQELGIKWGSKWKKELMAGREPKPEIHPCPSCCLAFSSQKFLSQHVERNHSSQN
# assay-procedure: MOA determination: IC50 at varying SAM or peptide concentrations (SPA)
# Format: biochemical
# test-parameters: [H3 1-25]/Km 5; Figure 2e; average of replicates; read-out: Average IC50
attribute-measured: IC50 (nM)
Answer in nM, number only, no unit symbol.

Per the records, this compound ( COc1cc(OC)cc(-c2noc(N3CCN(C)C4(CCN(c5ccnc(C)c5)CC4)C3)n2)c1 ) has IC50 equal to 125
